Organism: Rattus norvegicus
Assay: Open TG-GATES - Regimen: Single
Assay type: toxicity, organism-based, Sprague-Dawley
Design: regimen Single, gender Male, age 6 weeks
Conditions: in vivo, po, 1000 mg/kg, 6 h, tissue Plasma, route gavage, dose level High

substance_smiles: Cc1nnc2n1-c1ccc(Cl)cc1C(c1ccccc1Cl)=NC2
gamma-GTP: 1.6 IU/L

substance_smiles: CNC(=C[N+](=O)[O-])NCCSCc1ccc(CN(C)C)o1
gamma-GTP: 1.4 IU/L

substance_smiles: O=C(OC[C@H]1O[C@@H](OC(=O)c2cc(O)c(O)c(OC(=O)c3cc(O)c(O)c(O)c3)c2)[C@H](OC(=O)c2cc(O)c(O)c(OC(=O)c3cc(O)c(O)c(O)c3)c2)[C@@H](OC(=O)c2cc(O)c(O)c(OC(=O)c3cc(O)c(O)c(O)c3)c2)[C@@H]1OC(=O)c1cc(O)c(O)c(OC(=O)c2cc(O)c(O)c(O)c2)c1)c1cc(O)c(O)c(OC(=O)c2cc(O)c(O)c(O)c2)c1
gamma-GTP: 1.2 IU/L

substance_smiles: CN/C(=N/CCSCc1nc[nH]c1C)NC#N
gamma-GTP: 1.2 IU/L

substance_smiles: COC(=O)C1=C(C)NC(C)=C(C(=O)OC)C1c1ccccc1[N+](=O)[O-]
gamma-GTP: 1 IU/L

###

Species: Rattus norvegicus
Test: Open TG-GATES - Regimen: Single
Type: toxicity, organism-based, Sprague-Dawley
Set-up: regimen Single, gender Male, age 6 weeks
Details: in vivo, po, 1000 mg/kg, 24 h, tissue Kidney, route gavage, dose level High
Recorded KIDNEY_TOTAL values for a group of compounds are listed next.

substance_smiles: COC(=O)C1=C(C)NC(C)=C(C(=O)OC)C1c1ccccc1[N+](=O)[O-]
KIDNEY_TOTAL: 1.7 g
//
substance_smiles: CN/C(=N/CCSCc1nc[nH]c1C)NC#N
KIDNEY_TOTAL: 2 g
//
substance_smiles: O=C(OC[C@H]1O[C@@H](OC(=O)c2cc(O)c(O)c(OC(=O)c3cc(O)c(O)c(O)c3)c2)[C@H](OC(=O)c2cc(O)c(O)c(OC(=O)c3cc(O)c(O)c(O)c3)c2)[C@@H](OC(=O)c2cc(O)c(O)c(OC(=O)c3cc(O)c(O)c(O)c3)c2)[C@@H]1OC(=O)c1cc(O)c(O)c(OC(=O)c2cc(O)c(O)c(O)c2)c1)c1cc(O)c(O)c(OC(=O)c2cc(O)c(O)c(O)c2)c1
KIDNEY_TOTAL: 1.7 g
//
substance_smiles: CNC(=C[N+](=O)[O-])NCCSCc1ccc(CN(C)C)o1
KIDNEY_TOTAL: 2 g
//
substance_smiles: Cc1nnc2n1-c1ccc(Cl)cc1C(c1ccccc1Cl)=NC2
KIDNEY_TOTAL: 1.8 g

###

Organism: Rattus norvegicus
Assay: Open TG-GATES - Regimen: Daily Repeat
Format: toxicity, organism-based, Sprague-Dawley
Design: regimen Daily Repeat, gender Male, age 6 weeks
Settings: in vivo, po, 0 mg/kg, […], tissue Liver, route gavage, dose level Control, time 14 day
Recorded LIVER values for a group of molecules are listed next.

molecule: CNC(=C[N+](=O)[O-])NCCSCc1ccc(CN(C)C)o1
LIVER (g): 13.5
--
molecule: COC(=O)C1=C(C)NC(C)=C(C(=O)OC)C1c1ccccc1[N+](=O)[O-]
LIVER (g): 13.8
--
molecule: CN1C(=O)CCS(=O)(=O)C1c1ccc(Cl)cc1 (stereo not drawn)
LIVER (g): 12.6
